Test system: Cellular Release of Amyloid Peptide 1-40
Experiment: Test 4: Inhibition of Cellular Release of Amyloid Peptide 1-40
Type: cell-based, Chinese hamster
Conditions: Cricetulus griseus, 24 h; read-out: Amyloid-β1-40 release IC50
Counter-ions that a name gives are not always drawn.
PROPERTY: pIC50
Lab note — pIC50 values are minus log10 of concentrations in M.

The compound Cc1cc(C#N)cnc1C(=O)Nc1ccc(F)c([C@@]2(C(F)F)COCC(N)=N2)n1 [Example 39] showed pIC50 equal to 6.54

The reported value for NC1=NC(CF)(c2cccc(NC(=O)c3ccc(Cl)cn3)n2)COC1 (stereo not shown) [Example 3] in terms of pIC50 is 6.85

For NC1=NC(CF)(c2cc(NC(=O)c3ccc(Br)cn3)cnc2Cl)COC1 (stereo not shown) [Example 18, hydrochloride] the compound record lists pIC50 as 7.82

Sample Cc1cnc(C(=O)Nc2ccc(F)c([C@]3(C)CO[C@@](C)(C(F)(F)F)C(N)=N3)n2)cn1 [Example 33] ; pIC50 observed: 6.89

compound Cc1cc(C#N)cnc1C(=O)Nc1cc([C@@]2(C)CO[C@@](C)(C(F)(F)F)C(N)=N2)c(F)cn1 [Example 17] , pIC50 observed: 5.32

Lookup result for Cc1cc(C#N)cnc1C(=O)Nc1cccc([C@]2(C)CO[C@@](C)(C(F)(F)F)C(N)=N2)n1 [Example 8] ; measured pIC50: 8.22

# compound Cc1cnc(C(=O)Nc2ccc(F)c([C@]3(C)CO[C@@](C)(C(F)(F)F)C(N)=N3)n2)c(C)n1 [Example 41] ; its pIC50 = 6.79

The recorded pIC50 for C[C@@]1(c2cccc(NC(=O)c3ccc(C#N)cn3)n2)CO[C@@](C)(C(F)(F)F)C(N)=N1 [Example 10] is 7.77

For C[C@@]1(c2cccc(NC(=O)c3ncc(C#N)cc3Cl)n2)CO[C@@](C)(C(F)(F)F)C(N)=N1 [Example 20] the compound record lists pIC50 as 8.30

// field: pIC50; key: Cc1cc(C#N)cnc1C(=O)Nc1ccc(F)c([C@]2(C(F)F)COCC(N)=N2)n1 [Example 38] ; value = 8.30

Sure, the documented pIC50 for COCCn1ccc2nc(C(=O)Nc3ccc(F)c([C@]4(C)CO[C@@](C)(C(F)(F)F)C(N)=N4)n3)c(N)nc21 [Example 43] is 6.43

Entry Cc1cc(C#N)cnc1C(=O)Nc1ccc(F)c([C@]2(C)CO[C@@](C)(C(F)(F)F)C(N)=N2)n1 [Example 11] — recorded pIC50 = 8.70

Note to self: pIC50 recorded for Cc1cc(OC(F)F)cnc1C(=O)Nc1ccc(F)c([C@]2(C)CO[C@@](C)(C(F)(F)F)C(N)=N2)n1 [Example 29] was 7.62

Record Cc1cc(OCF)cnc1C(=O)Nc1ccc(F)c([C@]2(C)CO[C@@](C)(C(F)(F)F)C(N)=N2)n1 [Example 32] . Reported pIC50: 7.59

Short answer for COc1cnc(C(=O)Nc2ccc(F)c([C@]3(C)CO[C@@](C)(C(F)(F)F)C(N)=N3)n2)c(C)c1 [Example 25] : pIC50 was 7.12

Data point: C[C@@]1(c2nc(NC(=O)c3nc4ccn(CC(F)F)c4nc3N)ccc2F)CO[C@@](C)(C(F)(F)F)C(N)=N1 [Example 45] ; pIC50 = 5.44
